- Tested on: HCT-8
- PROTOCOL_TEXT: Effective dose required for inhibitory activity against HCT-8 human tumor cell line.
- Type: functional
- RUN_PARAMETERS: read-out: ED50 (the source's name)
Reported EC50 values are given for each entry in this list.
Answer with a number only, understood to be in µg/mL.

>>> readout_value("CCCCCCCCCC[C@@H](O)[C@@H]1CC[C@@H]([C@@H]2CC[C@@H]([C@H](O)CCCCCCCCCC(O)CC3=CC(C)OC3=O)O2)O1 (stereo partly drawn)")
14.9
>>> readout_value("CCCCCCCC/C=C\\CC[C@H](O)[C@@H]1CC[C@@H]([C@H](O)CCCCC(O)CCCCCC(O)CC2=C[C@H](C)OC2=O)O1 (stereo partly drawn)")
14.4
>>> readout_value("CCCCCCCCCCCC[C@@H](O)[C@H]1CC[C@@H]([C@@H](O)CCCCCCC(O)CCCCC[C@@H](O)CC2=C[C@H](C)OC2=O)O1 (stereo partly drawn)")
15
>>> readout_value("CCCCCCCCCCCC[C@@H](O)[C@H]1CC[C@H]([C@H](O)CCCC[C@H](O)CCCCC[C@@H](O)CC2=CC(C)OC2=O)O1 (stereo partly drawn)")
7.9
>>> readout_value("CCCCCCCCCCCCCC[C@@H](O)[C@H]1CC[C@H]([C@H](O)CCC(O)CCCCCCCC2=C[C@H](C)OC2=O)O1 (stereo partly drawn)")
20
>>> readout_value("CCCCCC[C@H](O)CCC[C@H](O)[C@H]1CC[C@H]([C@H]2CC[C@H]([C@H](O)CCCCCCCCCCCCC3=C[C@H](C)OC3=O)O2)O1")
9.8

Give the reported EC50 for `CCCCCCCCCC[C@H](O)[C@H]1CC[C@H]([C@H]2CC[C@H]([C@H](O)CCCCCCCC[C@@H](O)CC3=C[C@H](C)OC3=O)O2)O1` (system: HCT-8).
14.9

====

- Test system: HCT-8
- PROTOCOL_TEXT: Effective dose required for inhibitory activity against HCT-8 human tumor cell line.
- Type: functional
- RUN_PARAMETERS: read-out: ED50 (the source's name)
READOUT_TYPE: EC50 (µg/mL)
Answer with a number only, understood to be in µg/mL.

Requested field: EC50. Item: `CCCCCCCCC[C@H](O)[C@@H]1CC[C@@H]([C@@H]2CC[C@@H](CCCCCCCCCC[C@H](O)CC3=C[C@H](C)OC3=O)O2)O1`
13.8

One more molecule: CCCCCC(O)C(O)CCCCCC[C@@H](O)[C@H]1CC[C@H](CCCCCCCCCC[C@@H](O)CC2=C[C@H](C)OC2=O)O1 (some centres not stated) [MURICIN A]
15

One more molecule: CCCCCCCCCCCC[C@@H](O)[C@H]1CC[C@H]([C@H](O)CCCCCC(O)CCCC[C@@H](O)CC2=C[C@H](C)OC2=O)O1 (some centres not stated)
14.2

One more molecule: CCCCCCCCCCCC[C@H](O)[C@@H]1CC[C@@H]([C@@H](O)CCCCCCC(O)CCCCC[C@@H](O)CC2=C[C@H](C)OC2=O)O1 (some centres not stated) [ANNOMONTACIN]
13.7

One more molecule: CCCCCCCCCCCC[C@@H](O)[C@H]1CC[C@H]([C@H](O)CCCCC(O)CCCCCCCC2=C[C@H](C)OC2=O)O1 (some centres not stated)
10.8

One more molecule: CC(=O)O[C@H]1C(=O)[C@@]2(C)[C@H]([C@H](OC(=O)c3ccccc3)[C@]3(O)C[C@H](OC(=O)[C@H](O)[C@@H](NC(=O)c4ccccc4)c4ccccc4)C(C)=C1C3(C)C)[C@]1(OC(C)=O)CO[C@@H]1C[C@@H]2O [PACLITAXEL]
0.011

====

Reported EC50 values are given for each entry in this list.
- Test system: KB
- PROTOCOL_TEXT: Effective dose required for inhibitory activity against KB-VIN human tumor cell line.
- Assay type: functional
- RUN_PARAMETERS: read-out: ED50 (the source's name)

Requested field: EC50. Item: CCCCCCCCCCCCC(O)C(O)CCC(O)[C@H]1CC[C@H](CCCCCCC[C@@H](O)CC2=C[C@H](C)OC2=O)O1 (stereo partly drawn)
> 20 µg/mL

One more compound: CCCCCCCCCCCCCCCCCC1OC1C1OC1CCCCCCCCC1=C[C@H](C)OC1=O (stereo partly drawn)
> 20 µg/mL

One more compound: CCCCCCCCCC[C@@H](O)[C@@H]1CC[C@@H]([C@@H]2CC[C@@H]([C@H](O)CCCCCCCCCC(O)CC3=CC(C)OC3=O)O2)O1 (stereo partly drawn)
16.1 µg/mL

One more compound: `CCCCCCCCC[C@H](O)[C@@H]1CC[C@H]([C@H]2CC[C@@H](CCCCCCCCCC[C@H](O)CC3=C[C@H](C)OC3=O)O2)O1`
> 20 µg/mL

One more compound: CCCCCCCC(O)C(O)CCCC[C@@H](O)[C@H]1CC[C@H](CCCCCCCCCCCCC2=C[C@H](C)OC2=O)O1 (stereo partly drawn)
> 20 µg/mL

One more compound: `CCCCCCCCC[C@H](O)[C@@H]1CC[C@@H]([C@@H]2CC[C@@H](CCCCCCCCCC[C@H](O)CC3=C[C@H](C)OC3=O)O2)O1`
> 20 µg/mL

One more compound: CCCCCCCCCCCC[C@@H](O)[C@H]1CC[C@H]([C@H](O)CCCCC(O)CCCCCCCC2=C[C@H](C)OC2=O)O1 (stereo partly drawn)
12.5 µg/mL

====

- Tested on: KB
- PROTOCOL_TEXT: Effective dose required for inhibitory activity against KB-VIN human tumor cell line.
- Format: functional
- RUN_PARAMETERS: read-out: ED50 (the source's name)
Reported EC50 values are given for each entry in this list.
Answer with a number only, understood to be in µg/mL.

Example entries begin here.
>>> readout_value("CCCCCCCCCCCC[C@H](O)[C@@H]1CC[C@@H]([C@@H](O)CCCCCCC(O)CCCCC[C@@H](O)CC2=C[C@H](C)OC2=O)O1 (stereo partly specified)")
13.7
>>> readout_value("CCCCCCCCCCCC[C@@H](O)[C@H]1CC[C@@H]([C@@H](O)CCCCCCC(O)CCCCC[C@@H](O)CC2=C[C@H](C)OC2=O)O1 (stereo partly specified)")
14
>>> readout_value("CCCCCCCCCC[C@H](O)[C@H]1CC[C@H]([C@H]2CC[C@H]([C@H](O)CCCCCCCC[C@@H](O)CC3=C[C@H](C)OC3=O)O2)O1")
13.9

Requested field: EC50. Item: CCCCCC(O)C(O)CCCCCC[C@@H](O)[C@H]1CC[C@H](CCCCCCCCCC[C@@H](O)CC2=C[C@H](C)OC2=O)O1 (stereo partly specified)
15

====

Reported EC50 values are given for each entry in this list.
- System: KB
- PROTOCOL_TEXT: Effective dose required for inhibitory activity against KB-VIN human tumor cell line.
- Format: functional
- RUN_PARAMETERS: read-out: ED50 (the source's name)

Give the reported EC50 for `CCCCCCCCCCCC[C@@H](O)[C@H]1CC[C@@H]([C@@H](O)CCCCC(=O)CCCCCCCC2=C[C@H](C)OC2=O)O1` (system: KB).
> 20 µg/mL

One more compound: `CCCCCCCCCCCC[C@@H](O)[C@H]1CC[C@H]([C@H](O)CCCCC(=O)CCCCC[C@@H](O)CC2=C[C@H](C)OC2=O)O1`
> 20 µg/mL

====

- System: KB
- PROTOCOL_TEXT: Effective dose required for inhibitory activity against KB-VIN human tumor cell line.
- Type: functional
- RUN_PARAMETERS: read-out: ED50 (the source's name)
READOUT_TYPE: EC50 (µg/mL)
Answer with a number only, understood to be in µg/mL.

>>> readout_value("CCCCCCCCCCCCCC[C@@H](O)[C@H]1CC[C@H]([C@H](O)CCCCC(O)CCCCCC(O)CC2=C[C@H](C)OC2=O)O1 (some centres undefined)")
13.3

Requested field: EC50. Item: CCCCCCCCCCCC[C@@H](O)[C@H]1CC[C@H]([C@H](O)CCCC[C@H](O)CCCCC[C@@H](O)CC2=CC(C)OC2=O)O1 (some centres undefined)
10.3

Sourced from ChEMBL document CHEMBL1145845
